Biological target: T1, human RANK-L (human, UniProt O14788 140-317, limits assumed)
T1 construct: Soluble protein, used coated, biotinylated or labelled in ELISA, AlphaScreen, FMAT and Biacore; also called hRANK-L; soluble human RANK-L
T1 sequence (looked up): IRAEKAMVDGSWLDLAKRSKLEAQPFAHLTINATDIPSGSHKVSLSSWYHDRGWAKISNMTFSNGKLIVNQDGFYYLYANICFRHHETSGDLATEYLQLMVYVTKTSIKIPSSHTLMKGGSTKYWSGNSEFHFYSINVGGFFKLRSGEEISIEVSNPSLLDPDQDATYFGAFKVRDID
Test: AlphaScreen, biotin-hRANK-L / RANK-huFc beads
Please respond with reported pIC50 for every item in the list.
Give bare numbers, as −log10 of the molar value.

| binder | assay endpoint | result |
| --- | --- | --- |
| RANKL131 (VHH, Bivalent Nanobody; also called RANKL13-9GS-RANKL13) EVQLVESGGGLVQAGGSLRLSCAASGRTFRSYPMGWFRQAPGKEREFVASITGSGGSTYYADSVKGRFTISRDNAKNTVYLQMNSLRPEDTAVYSCAAYIRPDTYLSRDYRKYDYWGQGTQVTVSSGGGGSGGGSEVQLVESGGGLVQAGGSLRLSCAASGRTFRSYPMGWFRQAPGKEREFVASITGSGGSTYYADSVKGRFTISRDNAKNTVYLQMNSLRPEDTAVYSCAAYIRPDTYLSRDYRKYDYWGQGTQVTVSS | pIC50 | 10.72 |

Read the next record carefully.
Data request, read-out pIC50, for RANKL92biv (VHH, Bivalent Nanobody; also called RANKL9-20GS-RANKL9) EVQLVESGGGLVQAGGSLRLTCAASGRTFRSYAMGWFRQAPGKEREFVAAINYSGGSTNYADSVKGRFTISRDNAKNTLYLQMNSLEPEDTAVYYCAAGSGYASLSYYSTERAYTYWGQGTQVTVSSGGGGSGGGGSGGGGSGGGGSEVQLVESGGGLVQAGGSLRLTCAASGRTFRSYAMGWFRQAPGKEREFVAAINYSGGSTNYADSVKGRFTISRDNAKNTLYLQMNSLEPEDTAVYYCAAGSGYASLSYYSTERAYTYWGQGTQVTVSS
10.15
